Item-by-item account of IC50
- measured-on: Amine oxidase [flavin-containing] A (Homo sapiens, UniProt P21397)
- Sequence (P21397 whole entry): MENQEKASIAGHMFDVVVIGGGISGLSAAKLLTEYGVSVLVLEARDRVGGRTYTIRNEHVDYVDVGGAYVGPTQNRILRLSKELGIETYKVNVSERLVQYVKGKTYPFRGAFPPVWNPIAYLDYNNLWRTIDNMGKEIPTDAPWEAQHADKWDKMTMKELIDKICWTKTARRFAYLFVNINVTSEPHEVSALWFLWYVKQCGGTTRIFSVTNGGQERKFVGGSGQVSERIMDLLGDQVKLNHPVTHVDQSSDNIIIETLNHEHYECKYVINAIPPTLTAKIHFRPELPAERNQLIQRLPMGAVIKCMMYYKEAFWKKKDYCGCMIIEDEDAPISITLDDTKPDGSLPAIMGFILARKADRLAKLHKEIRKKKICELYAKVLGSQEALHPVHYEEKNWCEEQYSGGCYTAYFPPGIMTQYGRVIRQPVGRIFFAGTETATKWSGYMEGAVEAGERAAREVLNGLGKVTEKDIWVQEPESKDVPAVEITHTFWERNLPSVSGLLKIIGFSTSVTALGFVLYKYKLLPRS
metric-name: IC50 (µM)

[[record]]
compound = "Cc1c(C)c2ccc(OCC3CCCN(CCCC(F)F)C3)cc2oc1=O (racemic)"
numeric_result = 11

[[record]]
compound = "Cc1c(C)c2ccc(OCCCN(Cc3cccc(F)c3)C(C)C)cc2oc1=O"
numeric_result = 8.1

[[record]]
compound = "Cc1c(C)c2ccc(OCC3CCN(Cc4cccc(F)c4)CC3)cc2oc1=O"
numeric_result = 2.5

[[record]]
compound = "CCN(CCCOc1ccc2c(C)c(C)c(=O)oc2c1)Cc1cccc(F)c1"
numeric_result = 7.8

[[record]]
compound = "Cc1c(C)c2ccc(OCC3CCCN(Cc4cccc(F)c4)C3)cc2oc1=O (racemic)"
numeric_result = 2

[[record]]
compound = "Cc1c(C)c2ccc(OCc3cccc(CN(C)CCCC(F)F)c3)cc2oc1=O"
numeric_result = 4.2

[[record]]
compound = "Cc1c(C)c2ccc(OCC3CCN(Cc4cccc(C(F)(F)F)c4)CC3)cc2oc1=O"
numeric_result = 1.4

